So I've got a bunch of molecules here, and I need their viability at 48 h, 100 µM values.
protocol.details: Cytotoxicity against human HEK293 cells assessed as cell viability at 100 uM after 48 hrs by MTT assay relative to control
Type: cell-based
applied.conditions: read-out: Activity
The figure you give is taken to be in %; do not add the unit.

viability at 48 h, 100 µM lookup needed for COC(=O)C1=CO[C@@H](O[C@@H]2O[C@H](CO)[C@@H](O)[C@H](O)[C@H]2O)[C@@H]2[C@@H](CO)[C@@H](OC(=O)/C=C/c3ccc(O)c(O)c3)[C@@H](O)[C@H]12 [ARBORTRISTOSIDE B] , thanks.
54.8

Dear colleague, I am looking for the recorded viability at 48 h, 100 µM of the following molecule: COC(=O)C1=CO[C@@H](O[C@@H]2O[C@H](CO)[C@@H](O)[C@H](O)[C@H]2O)[C@@H]2[C@@H](C)[C@@H](OC(=O)/C=C/c3ccc(OC)cc3)[C@@H](O)[C@H]12 [ARBORTRISTOSIDE A]
71.2

Could you tell me which viability at 48 h, 100 µM is on file for COC(=O)C1=CO[C@@H](O[C@@H]2O[C@H](CO)[C@@H](O)[C@H](O)[C@H]2O)[C@@H]2[C@@H](C)[C@@H](OC(=O)/C=C/c3ccc(O)cc3)[C@@H](O)[C@H]12 [ARBORTRISTOSIDE C] ?
48.6

###

protocol.details: Cytotoxicity against human HEK293 cells assessed as cell viability at 4 uM after 48 hrs by MTT assay relative to control
Type: cell-based
applied.conditions: read-out: Activity
readout.name: viability at 48 h, 4 µM (%)
# unit: % | format: bare number

Any idea what its viability at 48 h, 4 µM is? The compound is COC(=O)C1=CO[C@@H](O[C@@H]2O[C@H](CO)[C@@H](O)[C@H](O)[C@H]2O)[C@@H]2[C@@H](C)[C@@H](OC(=O)/C=C/c3ccc(O)cc3)[C@@H](O)[C@H]12 [ARBORTRISTOSIDE C]
89.6

Reported viability at 48 h, 4 µM for COC(=O)C1=CO[C@@H](O[C@@H]2O[C@H](CO)[C@@H](O)[C@H](O)[C@H]2O)[C@@H]2[C@@H](CO)[C@@H](OC(=O)/C=C/c3ccc(O)c(O)c3)[C@@H](O)[C@H]12 [ARBORTRISTOSIDE B] : what is it?
93.6

Fill in: viability at 48 h, 4 µM of COC(=O)C1=CO[C@@H](O[C@@H]2O[C@H](CO)[C@@H](O)[C@H](O)[C@H]2O)[C@@H]2[C@@H](C)[C@@H](OC(=O)/C=C/c3ccc(OC)cc3)[C@@H](O)[C@H]12 [ARBORTRISTOSIDE A] is ___
95.5
